Measured values drawn from patent US20120135923A1 for this set.

- target-system: hMC1-R (Homo sapiens)
- Construct: expressed in transfected cells; host or cells: CHO-K1
- Sequence (Q01726 whole entry): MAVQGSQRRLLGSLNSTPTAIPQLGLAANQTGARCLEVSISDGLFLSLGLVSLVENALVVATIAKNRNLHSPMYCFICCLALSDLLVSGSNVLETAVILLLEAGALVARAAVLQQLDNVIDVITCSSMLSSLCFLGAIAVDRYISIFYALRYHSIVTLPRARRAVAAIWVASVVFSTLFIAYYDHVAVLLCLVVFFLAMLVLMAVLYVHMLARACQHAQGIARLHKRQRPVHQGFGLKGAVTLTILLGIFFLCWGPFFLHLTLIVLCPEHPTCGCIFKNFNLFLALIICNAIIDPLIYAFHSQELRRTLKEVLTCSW
- test-description: cyclic AMP bioassay (ECL) in CHO-K1 cells
- Assay type: cell-based
- experimental-parameters: Table 9C/9D; read-out: EC50 hMC1-R
Bridge positions count the residues as written; N and C are the ends. Square brackets hold non-standard residues; d marks the D form. Peptide text beside a SMILES is read from it. d2Nal = N[C@H](Cc1ccc2ccccc2c1)C(=O)O; Nle = CCCC[C@H](N)C(=O)O; Ahx = NCCCCCC(=O)O; GABA = NCCCC(=O)O
In this section, each of the compounds is paired with its reported EC50.
// return numeric value only (unit: nM, not printed)

Ask: Annotate the compound CCCC[C@H](NC(C)=O)C(=O)N[C@H]1CC(=O)NCCCC[C@@H](C(N)=O)NC(=O)CCNC(=O)[C@H](Cc2c[nH]c3ccccc23)NC(=O)[C@H](CCCNC(=N)N)NC(=O)[C@@H](Cc2ccc3ccccc3c2)NC(=O)[C@H](Cc2c[nH]cn2)NC1=O with its measured EC50.
Result: 0.913

Ask: Supply measured EC50 of CCCC[C@H](NC(C)=O)C(=O)N[C@H]1CSSC[C@@H](C(N)=O)NC(=O)CCCCCNC(=O)[C@H](Cc2c[nH]c3ccccc23)NC(=O)[C@H](CCCNC(=N)N)NC(=O)[C@@H](Cc2ccc3ccccc3c2)NC(=O)[C@H](Cc2c[nH]cn2)NC1=O (Ac-[Nle]CH[d2Nal]RW[Ahx]C-NH2; disulfide 2-8 (inferred)) in your reply.
Result: 0.581

Ask: Given the compound CC(=O)N[C@@H](CC1CCCCC1)C(=O)N[C@H]1CC(=O)NCCCC[C@@H](C(N)=O)NC(=O)CCCNC(=O)[C@H](Cc2c[nH]c3ccccc23)NC(=O)[C@H](CCCNC(=N)N)NC(=O)[C@@H](Cc2ccc3ccccc3c2)NC(=O)[C@H](Cc2c[nH]cn2)NC1=O , write its reported EC50.
Result: 1.27

Ask: Look up and state reported EC50 for CC(=O)N[C@@H](CCc1ccccc1)C(=O)N[C@H]1CC(=O)NCCCC[C@@H](C(N)=O)NC(=O)CCCNC(=O)[C@H](Cc2c[nH]c3ccccc23)NC(=O)[C@H](CCCNC(=N)N)NC(=O)[C@@H](Cc2ccc3ccccc3c2)NC(=O)[C@H](Cc2c[nH]cn2)NC1=O
Result: 0.413

Now let's try a different one.
Ask: Tell me its EC50 given CCCC[C@H](NC(C)=O)C(=O)N[C@H]1CSSC[C@@H](C(N)=O)NC(=O)CCCNC(=O)[C@H](Cc2c[nH]c3ccccc23)NC(=O)[C@H](CCCNC(=N)N)NC(=O)[C@@H](Cc2ccc3ccccc3c2)NC(=O)[C@H](Cc2c[nH]cn2)NC1=O (Ac-[Nle]CH[d2Nal]RW[GABA]C-NH2; disulfide 2-8) as the entry.
Result: 0.231
